Below, each entry is listed with its recorded Relative Activity (ratio of variant IC50/WT IC50), chromogenic thrombin inhibition assay.
target: thrombin; experiment: cell-based or functional assay
Quick reminder: number only, in ratio, skip the unit.

Some binders with recorded Relative Activity (ratio of variant IC50/WT IC50), chromogenic thrombin inhibition assay:
{"binder": "hirudin mutein M 25 (I29R L30R) (other) VVYTDCTESGQNLCLCEGSVVCGQGNKCRRGSDGEKNQCVTGEGTPKPESHNDGDFEEIPEEYLQ", "reported": 1}
{"binder": "hirudin mutein M 42 (V21A) (other) VVYTDCTESGQNLCLCEGSVACGQGNKCILGSDGEKNQCVTGEGTPKPESHNDGDFEEIPEEYLQ", "reported": 0.93}
{"binder": "hirudin mutein M 39 (L15H) (other) VVYTDCTESGQNLCHCEGSVVCGQGNKCILGSDGEKNQCVTGEGTPKPESHNDGDFEEIPEEYLQ", "reported": 0.65}
{"binder": "hirudin mutein M 45 (V21K) (other) VVYTDCTESGQNLCLCEGSVKCGQGNKCILGSDGEKNQCVTGEGTPKPESHNDGDFEEIPEEYLQ", "reported": 0.9}

For this binder ( hirudin mutein M 44 (V21H) (other) VVYTDCTESGQNLCLCEGSVHCGQGNKCILGSDGEKNQCVTGEGTPKPESHNDGDFEEIPEEYLQ ), measured Relative Activity (ratio of variant IC50/WT IC50), chromogenic thrombin inhibition assay is 0.74

// data source = patent US20060140929A1
